system: human peripheral blood monocytes; assay: Activation of monocytes in vitro measured by production of tumor necrosis factor (ELISA); format: cell-based; settings: Table 7, Experiment 1, 0.1 μg/ml, 24 Hours
readout-type: TNF (pg/ml) at given Concentration of Compound (pg/mL)
Give the number; pg/mL is assumed, so skip it.

These recorded examples may help you get a feel for the data.
CCCCCCCCCCCCCCCC(=O)OCC(COC(=O)CCCCCCCCCCCCCCC)NC(=O)C(C)NC(=O)CCC(NC(=O)C(NC(=O)C(C)OC1C(NC(C)=O)C(O)OC(CO)C1OC1OC(CO)C(O)C(O)C1NC(C)=O)C(C)O)C(N)=O [ID, GlcNAcMurNAc-F-Thr-D-isoGln-F-Ala-NHDPG]    0
CCCCCCCCCCCCCCCC(=O)OCC(COC(=O)C(C)NC(=O)CCC(NC(=O)C(NC(=O)C(C)OC1C(NC(C)=O)C(O)OC(CO)C1OC1OC(CO)C(O)C(O)C1NC(C)=O)C(C)C)C(N)=O)OC(=O)CCCCCCCCCCCCCCC [IIF, GlcNAcMurNAc-F-Val-D-isoGln-F-Ala-DpG]    440
CCCCCCCCCCCCCCCC(=O)OCC(COC(=O)C(C)NC(=O)CCC(NC(=O)C(NC(=O)C(C)OC1C(NC(C)=O)C(O)OC(CO)C1OC1OC(CO)C(O)C(O)C1NC(C)=O)C(C)O)C(N)=O)OC(=O)CCCCCCCCCCCCCCC [IID, GlcNAcMurNAc-F-Thr-D-isoGln-F-Ala-DPG]    320
CCCCCCCCCCCCCCCC(=O)OCC(COC(=O)C(C)NC(=O)CCC(NC(=O)C(C)NC(=O)C(C)OC1C(NC(C)=O)C(O)OC(CO)C1OC1OC(CO)C(O)C(O)C1NC(C)=O)C(N)=O)OC(=O)CCCCCCCCCCCCCCC (centres unmarked) [Compound IIA]    460

Pending compound:
Inquiry: Any idea what TNF (pg/ml) at given Concentration of Compound was measured for CC(=O)NC1C(OC2C(CO)OC(O)C(NC(C)=O)C2OC(C)C(=O)NC(C(=O)NC(CCC(=O)O)C(N)=O)C(C)O)OC(CO)C(O)C1O [GlcNAcMurNAc-L-Thr-D-isoGln] ?
Reply text: 440
